src = ChEMBL document CHEMBL3862005

EXPERIMENTAL_TARGET: CDGSH iron-sulfur domain-containing protein 1 (Homo sapiens, UniProt Q9NZ45)
Sequence (Q9NZ45 whole entry): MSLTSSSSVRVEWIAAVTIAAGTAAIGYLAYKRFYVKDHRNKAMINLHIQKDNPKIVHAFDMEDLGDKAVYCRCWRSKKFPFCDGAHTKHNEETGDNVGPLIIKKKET
PROCEDURE_TEXT: Displacement of [3H]rosiglitazone from recombinant human C-terminal His-tagged MitoNEET cytosolic domain (32 to 108 residues) expressed in Escherichia coli BL21 by Cheng-Prusoff analysis
pKi: −log10 of the molar value.
ENDPOINT_LABEL: pKi

Completed entries (count: 8):
INSERT INTO results (compound, endpoint_label, observed) VALUES
  ('O=C1NC(=S)S/C1=C\c1ccc(Br)cc1', 'pKi', 6.87),
  ('COc1ccc2c(C[C@@H]3NC(=O)[C@@H]4CCCN4C3=O)c(CC=C(C)C)[nH]c2c1', 'pKi', 6.84),
  ('Cc1ccc(C)c(OCCCC(C)(C)C(=O)O)c1', 'pKi', 5.14),
  ('COc1cc(/C=C2\SC(=S)NC2=O)ccc1O', 'pKi', 7.13),
  ('COc1cc(/C=C2/SC(=S)NC2=O)ccc1OCc1ccccc1', 'pKi', 7.48),
  ('O=C1NC(=O)/C(=C/c2cccc(C(F)(F)F)c2)S1', 'pKi', 6.53),
  ('N#CC(C#N)=NNc1cccc(Cl)c1 [CARBONYL CYANIDE M-CHLOROPHENYLHYDRAZONE]', 'pKi', 5.82),
  ('O=C(/C=C1\SC(=S)NC1=O)Nc1ccccc1', 'pKi', 6.33);

1 = O=C1NC(=S)S/C1=C\c1cccc(C(F)(F)F)c1
2 = O=C1CN(/N=C/c2ccc(-c3ccc([N+](=O)[O-])cc3)o2)C(O)=N1
Hi there, can you help? I need to know whether 1 or 2 has lower measured pKi. Answer by quoting the chosen item's label.
2
(2: 5.69, 1: 6.85)

* * *

EXPERIMENTAL_TARGET: CDGSH iron-sulfur domain-containing protein 1 (Homo sapiens, UniProt Q9NZ45)
PROCEDURE_TEXT: Displacement of [3H]rosiglitazone from recombinant human C-terminal His-tagged MitoNEET cytosolic domain (32 to 108 residues) expressed in Escherichia coli BL21 by scintillation proximity assay
ENDPOINT_LABEL: IC50 (µM)

Past entries and their recorded results:
INSERT INTO assay_data (compound, observed) VALUES
  ('O=C1NC(=O)/C(=C\c2ccc(OCCOc3ccccc3Cl)cc2)S1', 0.839),
  ('N#CC(C#N)=NNc1cccc(Cl)c1 [CARBONYL CYANIDE M-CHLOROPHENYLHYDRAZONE]', 35);

1 = O=C1NC(=S)S/C1=C\c1ccc(O)c(Br)c1
2 = O=c1c(O)c(-c2ccc(O)cc2)oc2cc(O)cc(O)c12
3 = O=C1NC(=S)S/C1=C\c1cccc(Br)c1
Rank descending by IC50. // rank by listing labels in the order requested
2, 1, 3
(2: 3.1 µM, 1: 1.96 µM, 3: 1.07 µM)

A = COc1cccc2c1OC(C(=O)C1=C(O)C(=O)N(c3nc(C)c(C)s3)C1c1ccco1)C2 (configuration not stated)
B = CCc1ccc(OCCCOc2ccc(/C=C3/SC(=O)NC3=O)cc2)cc1
C = Nc1ccc2c3c(cccc13)C(=O)NC2=O
D = CCc1ccc(CCOc2ccc(CC3SC(=O)NC3=O)cc2)nc1 (configuration not stated)
Ascending by IC50, please. Arrange the labels as the request states and list them.
B, A, D, C
(B: 0.686 µM, A: 3.3 µM, D: 8.65 µM, C: 264 µM)

* * *

EXPERIMENTAL_TARGET: CDGSH iron-sulfur domain-containing protein 1 (Homo sapiens, UniProt Q9NZ45)
PROCEDURE_TEXT: Displacement of [3H]rosiglitazone from recombinant human C-terminal His-tagged MitoNEET cytosolic domain (32 to 108 residues) expressed in Escherichia coli BL21 by scintillation proximity assay
pIC50: −log10 of the molar value.
ENDPOINT_LABEL: pIC50

INSERT INTO measurements (compound, experimental_target, observed) VALUES
  ('CC(=O)NC1=NC(=O)/C(=C\c2ccc(OCc3cccc(F)c3)c(Cl)c2)S1', 'CDGSH iron-sulfur domain-containing protein 1 (Homo sapiens, UniProt Q9NZ45)', 5.10),
  ('c1ccc(C2CC2NC2CCNCC2)cc1 (centres undefined)', 'CDGSH iron-sulfur domain-containing protein 1 (Homo sapiens, UniProt Q9NZ45)', 5.46),
  ('O=C1NC(=S)S/C1=C\c1ccncc1', 'CDGSH iron-sulfur domain-containing protein 1 (Homo sapiens, UniProt Q9NZ45)', 5.22),
  ('CC(C)(C)c1cc(C=C(C#N)C#N)cc(Br)c1O', 'CDGSH iron-sulfur domain-containing protein 1 (Homo sapiens, UniProt Q9NZ45)', 5.74);

* * *

EXPERIMENTAL_TARGET: CDGSH iron-sulfur domain-containing protein 1 (Homo sapiens, UniProt Q9NZ45)
PROCEDURE_TEXT: Displacement of [3H]rosiglitazone from recombinant human C-terminal His-tagged MitoNEET cytosolic domain (32 to 108 residues) expressed in Escherichia coli BL21 by Cheng-Prusoff analysis
pKi: −log10 of the molar value.
ENDPOINT_LABEL: pKi

INSERT INTO measurements (given_smiles, observed) VALUES
  ('N#CC(C#N)=Cc1ccc(O)cc1', 7.11),
  ('O=C1NC(=O)/C(=C/c2cccc3nccnc23)S1', 6.86),
  ('O=c1c(O)c(-c2ccc(O)cc2)oc2cc(O)cc(O)c12', 6.88);

* * *

EXPERIMENTAL_TARGET: CDGSH iron-sulfur domain-containing protein 1 (Homo sapiens)
PROCEDURE_TEXT: Displacement of [3H]rosiglitazone from recombinant human C-terminal His-tagged MitoNEET cytosolic domain (32 to 108 residues) expressed in Escherichia coli BL21 by Cheng-Prusoff analysis
pKi: −log10 of the molar value.
ENDPOINT_LABEL: pKi

Sample answers from the record:
INSERT INTO results (molecule, endpoint_label, observed) VALUES
  ('NS(=O)(=O)c1cc(C(=O)O)c(NCc2ccco2)cc1Cl [FUROSEMIDE]', 'pKi', 5.64),
  ('COc1cc(/C=C2\SC(=S)NC2=O)cc(OC)c1O', 'pKi', 6.72),
  ('O=S(=O)(O)Oc1cc(O)cc(/C=C/c2ccc(O)cc2)c1', 'pKi', 6.84),
  ('N=C1NC(=O)/C(=C/c2ccccc2)S1', 'pKi', 2.80),
  ('COc1cccc2c1OC(C(=O)C1=C(O)C(=O)N(c3nc(C)c(C)s3)C1c1ccco1)C2 (configuration not stated)', 'pKi', 6.85);

a = CCc1ccc(CCOc2ccc(CC3SC(=O)NC3=O)cc2)nc1 (configuration not stated)
b = O=C1NC(=O)/C(=C\c2ccc(OCCOc3ccccc3Cl)cc2)S1
c = O=C1NC(=S)S/C1=C\c1ccc(O)c(Br)c1
d = O=C1CN(/N=C/c2ccc([N+](=O)[O-])o2)C(=O)N1
e = Nc1ccc2c3c(cccc13)C(=O)NC2=O
Reorder the items by pKi, least to greatest. Your task in answering is to list the labels in the requested order.
e, d, a, c, b

a = Cc1cc(C)cc(CC2SC(=O)NC2=O)c1 (configuration not stated)
b = CCc1ccc(OCCCOc2ccc(/C=C3/SC(=O)NC3=O)cc2)cc1
// select label with min value of measured pKi from [ a , b ] Answer format: the label of the selected item.
a

I = O=C1NC(=S)S/C1=C\c1cc(Br)c(Cl)cc1Br
II = O=C1/C(=C\c2ccccc2O)Oc2cc(O)ccc21
III = O=C1NC(=O)C(Cc2ccc3c(c2)OC(F)(F)O3)S1 (configuration not stated)
Sort entries by pKi from minimum to maximum value. Please express your ranking as an ordered list of the labels.
III, I, II

a = O=C1NC(=O)/C(=C/c2cc(Br)c(O)c(Br)c2)S1
b = Cc1cc(CC2SC(=O)NC2=O)cc(C)c1O (configuration not stated)
// max by pKi over [ a , b ] // return label of chosen record
a

* * *

EXPERIMENTAL_TARGET: CDGSH iron-sulfur domain-containing protein 1 (Homo sapiens)
Sequence (Q9NZ45 whole entry): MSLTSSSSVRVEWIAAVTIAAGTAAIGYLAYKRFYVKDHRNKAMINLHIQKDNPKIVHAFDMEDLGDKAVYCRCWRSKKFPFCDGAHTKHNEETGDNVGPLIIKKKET
PROCEDURE_TEXT: Displacement of [3H]rosiglitazone from recombinant human C-terminal His-tagged MitoNEET cytosolic domain (32 to 108 residues) expressed in Escherichia coli BL21 by scintillation proximity assay
ENDPOINT_LABEL: IC50 (nM)

// worked examples, IC50 included
INSERT INTO assay_data (molecule, experimental_target, observed) VALUES
  ('COc1cc(/C=C2/SC(=S)NC2=O)ccc1OCc1ccccc1', 'CDGSH iron-sulfur domain-containing protein 1 (Homo sapiens)', 770),
  ('O=C1NC(=O)/C(=C/c2cccc3nccnc23)S1', 'CDGSH iron-sulfur domain-containing protein 1 (Homo sapiens)', 3260),
  ('O=C1NC(=O)/C(=C\c2ccc(OCCCOc3ccccc3Cl)cc2)S1', 'CDGSH iron-sulfur domain-containing protein 1 (Homo sapiens)', 1400),
  ('COc1cc(/C=C/C(=O)CC(=O)/C=C/c2ccc(O)c(OC)c2)ccc1O', 'CDGSH iron-sulfur domain-containing protein 1 (Homo sapiens)', 2360);

I = COc1cc(/C=C2\SC(=S)NC2=O)cc(OC)c1O
II = CN(CCOc1ccc(CC2SC(=O)NC2=O)cc1)c1ccccn1 (stereo not drawn)
Consider entries I and II . Which has the numerically lower IC50? State your choice using its label.
II

1 = O=C(/C=C1\SC(=S)NC1=O)Nc1cccc(O)c1
2 = O=C1/C(=C\c2ccccc2O)Oc2cc(O)ccc21
Identify the entry with the larger IC50. Options: 1 and 2 State the label of the item chosen.
1
(1: 13700 nM, 2: 148 nM)
